For each record, write down the corresponding inhibition at 1 µg/mL.
Target: HBV polymerase reverse transcriptase (HBV-RT) (Hepatitis B virus genotype D subtype ayw, UniProt P03156)
Construct: made in house; host or cells: E. coli
Sequence (P03156 whole entry): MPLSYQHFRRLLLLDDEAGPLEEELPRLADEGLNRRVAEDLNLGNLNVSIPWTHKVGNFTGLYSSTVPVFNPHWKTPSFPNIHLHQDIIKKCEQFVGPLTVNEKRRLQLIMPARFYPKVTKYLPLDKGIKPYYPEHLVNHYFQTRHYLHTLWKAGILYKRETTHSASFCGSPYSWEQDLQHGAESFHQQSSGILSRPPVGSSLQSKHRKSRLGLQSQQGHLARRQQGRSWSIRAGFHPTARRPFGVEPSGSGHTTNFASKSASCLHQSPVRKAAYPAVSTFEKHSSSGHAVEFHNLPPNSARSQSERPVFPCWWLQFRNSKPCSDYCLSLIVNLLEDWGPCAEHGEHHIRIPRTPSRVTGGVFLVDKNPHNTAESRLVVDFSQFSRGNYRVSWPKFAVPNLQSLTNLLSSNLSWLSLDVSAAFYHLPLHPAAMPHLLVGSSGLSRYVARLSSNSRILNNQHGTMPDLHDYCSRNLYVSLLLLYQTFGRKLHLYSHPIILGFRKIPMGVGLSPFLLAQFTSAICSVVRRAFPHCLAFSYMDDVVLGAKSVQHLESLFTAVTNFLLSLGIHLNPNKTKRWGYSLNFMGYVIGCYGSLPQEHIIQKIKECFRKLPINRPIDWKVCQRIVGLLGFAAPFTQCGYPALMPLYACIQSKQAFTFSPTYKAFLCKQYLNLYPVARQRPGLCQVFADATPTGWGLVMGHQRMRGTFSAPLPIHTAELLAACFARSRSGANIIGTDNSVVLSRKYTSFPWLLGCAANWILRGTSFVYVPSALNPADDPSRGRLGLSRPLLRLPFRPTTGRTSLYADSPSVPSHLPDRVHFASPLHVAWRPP
Assay: inhibitory activity against HBV polymerase in vitro (reverse transcriptase activity)
Format: biochemical
Conditions: 1 μg/ml; read-out: Inhibitory effect of HBV-RT
Quick note: give the figure in %, leave out the unit.

Query CCN(CCO)C(=O)c1ccc(C(=O)N2CCN(c3ncccc3NC(C)C)CC2)cc1 [Compound No. 6] yields inhibition at 1 µg/mL of 51

Briefly, inhibition at 1 µg/mL measured for COCCN(CCOC)C(=O)c1ccc(C(=O)N2CCN(c3ncccc3NC(C)C)CC2)cc1 [Compound No. 62] : 60

What the record says about CCNc1cccnc1N1CCN(C(=O)c2ccc(C(=O)N(CC)CCO)cc2)CC1 [Compound No. 18] : inhibition at 1 µg/mL is 63

The compound listed as CC(C)Nc1cccnc1N1CCN(C(=O)c2ccc(C(=O)NC[C@H](C)O)cc2)CC1 [Compound No. 56] shows inhibition at 1 µg/mL equal to 76

GET /value?item= CC(C)Nc1cccnc1N1CCN(C(=O)c2ccc(C(=O)N[C@@H](CO)C(C)C)cc2)CC1 [Compound No. 39] &field=inhibition at 1 µg/mL returns 78

For CC(C)Nc1cccnc1N1CCN(C(=O)c2ccc(C(=O)N(CCO)c3ccccc3)cc2)CC1 [Compound No. 11] the compound record lists inhibition at 1 µg/mL as 76

For record COCCNC(=O)c1ccc(C(=O)N2CCN(c3ncccc3NC(C)C)CC2)cc1 [Compound No. 61] the listed inhibition at 1 µg/mL is 81

Item: CC(C)Nc1cccnc1N1CCN(C(=O)c2ccc(C(=O)N3CCN(CCOCCO)CC3)cc2)CC1 [Compound No. 32] | inhibition at 1 µg/mL: 71

###

Target: HBV polymerase reverse transcriptase (HBV-RT) (Hepatitis B virus genotype D subtype ayw)
Construct: made in house; host or cells: E. coli
Test: inhibitory activity against HBV polymerase in vitro (reverse transcriptase activity)
Format: biochemical
Settings: 0.1 μg/ml; read-out: Inhibitory effect of HBV-RT
Please use T whenever inhibition at 0.1 µg/mL is not below 60%, and F whenever it is.

Query: Is the recorded value of inhibition at 0.1 µg/mL equal to or greater than 60% for this molecule? `CC(C)Nc1cccnc1N1CCN(C(=O)c2ccc(C(=O)NCCCO)cc2)CC1`
Reply: F

Query: Has `CCN(CC)C(=O)c1ccc(C(=O)N2CCN(c3ncccc3NC(C)C)CC2)cc1` a recorded inhibition at 0.1 µg/mL greater than or equal to 60%?
Reply: F

Query: inhibition at 0.1 µg/mL >= 60% for `COCCNC(=O)c1ccc(C(=O)N2CCN(c3ncccc3NC(C)C)CC2)cc1` ?
Reply: F

Query: Determine whether this molecule has inhibition at 0.1 µg/mL no lower than 60%: `CC(C)Nc1cccnc1N1CCN(C(=O)c2ccc(C(=O)NCCO)cc2)CC1`
Reply: F

Query: Determine whether this molecule has inhibition at 0.1 µg/mL no lower than 60%: `CC(C)Nc1cccnc1N1CCN(C(=O)c2ccc(C(=O)NCCN(C)C)cc2)CC1`
Reply: T

Query: Could you please find out whether `CC(C)Nc1cccnc1N1CCN(C(=O)c2ccc(C(=O)NC[C@H](C)O)cc2)CC1` has inhibition at 0.1 µg/mL that meets 60% or exceeds it?
Reply: F

Query: Hello, I need to know if `CC(C)Nc1cccnc1N1CCN(C(=O)c2ccc(C(=O)NCCN3CCOCC3)cc2)CC1` has measured inhibition at 0.1 µg/mL not below 60%. Thanks!
Reply: T

Query: Is inhibition at 0.1 µg/mL for `CCNc1cccnc1N1CCN(C(=O)c2ccc(C(=O)N(CC)CCO)cc2)CC1` at or above 60%?
Reply: F

###

Target: HBV polymerase reverse transcriptase (HBV-RT) (Hepatitis B virus genotype D subtype ayw)
Construct: made in house; host or cells: E. coli
Test: inhibitory activity against HBV polymerase in vitro (reverse transcriptase activity)
Assay type: biochemical
Conditions: 1 μg/ml; read-out: Inhibitory effect of HBV-RT
Kind request: treat 60% as inclusive, so inhibition at 1 µg/mL at 60% or higher is class 1, anything lower is class 0.

Query: Hello, I need to know if CC(C)Nc1cccnc1N1CCN(C(=O)c2ccc(C(=O)NCCCO)cc2)CC1 [Compound No. 2] has measured inhibition at 1 µg/mL not below 60%. Thanks!
Reply: class 0

Query: Hi team, for CC(C)Nc1cccnc1N1CCN(C(=O)c2ccc(C(=O)N3CCN(C)CC3)cc2)CC1 [Compound No. 20] , is the recorded inhibition at 1 µg/mL at or above 60%?
Reply: class 0

Query: In plain terms: is recorded inhibition at 1 µg/mL at least 60% for CC(C)Nc1cccnc1N1CCN(C(=O)c2ccc(C(=O)N3CCOCC3)cc2)CC1 [Compound No. 76] ?
Reply: class 1

Query: Entry CC(O)CN(CC(C)O)C(=O)c1ccc(C(=O)N2CCN(c3ncccc3NC(C)C)CC2)cc1 (stereo not drawn) [Compound No. 16] : is its inhibition at 1 µg/mL no less than 60%?
Reply: class 1

Query: Exam item: decide whether the reported inhibition at 1 µg/mL for CC(C)Nc1cccnc1N1CCN(C(=O)c2ccc(C(=O)N3CCN(CC(O)CO)CC3)cc2)CC1 (stereo not drawn) [Compound No. 31] is at least 60%.
Reply: class 0

Query: hey, is inhibition at 1 µg/mL for this one >= 60%? CC(C)Nc1cccnc1N1CCN(C(=O)c2ccc(C(=O)NC(CO)CO)cc2)CC1 [Compound No. 52]
Reply: class 1

Query: Does the compound CCNc1cccnc1N1CCN(C(=O)c2ccc(C(=O)N3CCN(CCO)CC3)cc2)CC1 [Compound No. 33] have recorded inhibition at 1 µg/mL that is 60% or more?
Reply: class 1

Query: Kindly determine if inhibition at 1 µg/mL recorded for CC(C)Nc1cccnc1N1CCN(C(=O)c2ccc(C(=O)NCCCN3CCOCC3)cc2)CC1 [Compound No. 80] is above or exactly 60%.
Reply: class 1

Query: Say whether CC(C)Nc1cccnc1N1CCN(C(=O)c2ccc(C(=O)NCCN3CCOCC3)cc2)CC1 [Compound No. 79] shows inhibition at 1 µg/mL of 60% or more.
Reply: class 1

###

Target: HIV reverse transcriptase (HIV-RT) (Human immunodeficiency virus type 1 group M subtype B)
Construct: purchased Boehringer Mannheim
Experiment: in vitro inhibition test against HIV reverse transcriptase
Type: biochemical, HIV (AIDS virus)
Conditions: 1 μg/ml; read-out: Inhibitory effect of HIV-RT
Could you please report measured inhibition at 1 µg/mL for the items listed next?
Express your answer in %, writing the number without its unit.

// compound `CC(C)Nc1cccnc1N1CCN(C(=O)c2ccc(C(=O)N3CCSCC3)cc2)CC1` , assay HIV reverse transcriptase (HIV-RT) (Human immunodeficiency virus type 1 group M subtype B), inhibition at 1 µg/mL value: 40

Note to self: inhibition at 1 µg/mL of `CC(C)Nc1cccnc1N1CCN(C(=O)c2ccc(C(=O)NCCN3CCCCC3)cc2)CC1` with HIV reverse transcriptase (HIV-RT) (Human immunodeficiency virus type 1 group M subtype B) was 60

Reading of inhibition at 1 µg/mL for `CC(C)Nc1cccnc1N1CCN(C(=O)c2ccc(C(=O)NCCO)cc2)CC1` with HIV reverse transcriptase (HIV-RT) (Human immunodeficiency virus type 1 group M subtype B): 62

Record `CC(C)Nc1cccnc1N1CCN(C(=O)c2ccc(C(=O)N3CCNCC3)cc2)CC1` / HIV reverse transcriptase (HIV-RT) (Human immunodeficiency virus type 1 group M subtype B), inhibition at 1 µg/mL recorded as 52

The value of inhibition at 1 µg/mL recorded for `CC(C)Nc1cccnc1N1CCN(C(=O)c2ccc(C(=O)NC(C)(C)CO)cc2)CC1` when tested on HIV reverse transcriptase (HIV-RT) (Human immunodeficiency virus type 1 group M subtype B) reads 51

Value sought: inhibition at 1 µg/mL, system HIV reverse transcriptase (HIV-RT) (Human immunodeficiency virus type 1 group M subtype B), item `CCN1CCN(C(=O)c2ccc(C(=O)N3CCN(c4ncccc4NC(C)C)CC3)cc2)CC1` . Result: 64

Record `CC(C)Nc1cccnc1N1CCN(C(=O)c2ccc(C(=O)N(C(C)C)C(C)C)cc2)CC1` has HIV reverse transcriptase (HIV-RT) (Human immunodeficiency virus type 1 group M subtype B) inhibition at 1 µg/mL equal to 59

Given the compound `CC(C)Nc1cccnc1N1CCN(C(=O)c2ccc(C(=O)N[C@@H](CO)C(C)C)cc2)CC1` and test system HIV reverse transcriptase (HIV-RT) (Human immunodeficiency virus type 1 group M subtype B), the measured inhibition at 1 µg/mL is 75

###

Molecular target: RNase H of HBV polymerase (HBV-RNase H) (Hepatitis B virus ayw/France/Tiollais/1979)
Construct: amylose/maltose step implies MBP fusion
Sequence (P03156 680-832): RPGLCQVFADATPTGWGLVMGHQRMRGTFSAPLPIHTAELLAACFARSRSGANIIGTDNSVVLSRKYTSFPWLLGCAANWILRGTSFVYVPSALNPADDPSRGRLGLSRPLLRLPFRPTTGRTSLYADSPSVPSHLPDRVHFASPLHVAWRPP
Assay: inhibitory effects against RNase H activity of HBV polymerase
Type: biochemical
Conditions: 0.1 μg/ml; read-out: Inhibitory effect of HBV-RNase H
observation.type: inhibition at 0.1 µg/mL (%)
Write it as a number; the unit % goes unstated.

The reported inhibition at 0.1 µg/mL of the molecule CC(C)Nc1cccnc1N1CCN(C(=O)c2ccc(C(=O)N3CCN(CCO)CC3)cc2)CC1 [Compound No. 26] was 66

molecule CC(C)Nc1cccnc1N1CCN(C(=O)c2ccc(C(=O)N3CCN(CCCO)CC3)cc2)CC1 [Compound No. 27] , inhibition at 0.1 µg/mL observed: 73

Query CC(C)Nc1cccnc1N1CCN(C(=O)c2ccc(C(=O)N3CCN(CC(O)CO)CC3)cc2)CC1 (stereo not shown) [Compound No. 31] yields inhibition at 0.1 µg/mL of 80

Value of measured inhibition at 0.1 µg/mL for the entry CC(C)Nc1cccnc1N1CCN(C(=O)c2ccc(C(=O)NCCO)cc2)CC1 [Compound No. 1] : 11
